Assay: SK-BR-3 cell growth inhibitors, pilot screen, 24 h, human (AID 572);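 further: compound exposure lasted between 18 and 24 h rather than exactly 24 h; 100% = carrier-treated control wells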
Details: SK-BR-3 viability, CellTiter-Glo luminescence, at 10 µM, active compounds read low
compounds and their reported viability
All answers are understood in %, so give the number only.

Example results:
Consider O=C(NCc1cccnc1)C1CCCN(S(=O)(=O)c2ccc(Cl)cc2)C1 (stereo not drawn) . Its measured viability is 102

Consider O=C(CN1C(=O)c2ccccc2S1(=O)=O)NCc1ccccn1 . Its measured viability is 94

Consider C=CCSC1=C(C#N)C(c2ccccc2)CC(=O)N1 (stereo not drawn) . Its measured viability is 106

Read the next record carefully.
Consider Cc1ccc2cc3cc(C(=O)N4CC(C)CC(C)C4)oc3nc2c1 (stereo not drawn) . Its measured viability is 108

###

Experiment: viability gain of MRP-1-high H69AR cells under doxorubicin, pilot screen, MRP-1 activator project, CellTiter-Glo, duplicate (AID 807);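 further: compound pretreatment 18-22 h then 72 h combined with doxorubicin; 0% = doxorubicin alone and 100% = vehicle without doxorubicin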
Conditions: H69AR viability with doxorubicin, CellTiter-Glo luminescence; at 10 µM; active compounds read high
molecules and their reported viability increase
All answers are understood in %, so give the number only.

Example results:
Consider Cc1c(N=c2c(=O)c3ccccc3c2=O)c(=O)n(-c2ccccc2)n1C . Its measured viability increase is -4.43

Consider Nn1c(SCC(=O)NC2CCCCC2)nnc1-c1ccccc1 . Its measured viability increase is -1.37

Consider CCN(CC)CCNC(=O)Cn1nc(Cc2cccnc2)c2ccccc2c1=O . Its measured viability increase is -0.86

Consider COc1ccc(CNC(=O)c2ccc(NC(=O)C3CCCO3)cc2)cc1 (stereo not given) . Its measured viability increase is 0.75

Continuing:
Consider c1cncc(CNc2c3c(nc4nnnn24)CCCC3)c1 . Its measured viability increase is -2.59

Consider O=C(Nc1ccc(SC(F)F)cc1)C1=COCCO1 . Its measured viability increase is 2.59

Consider Cc1cc(C(=O)NCC(c2ccco2)N(C)C)no1 (stereo not given) . Its measured viability increase is -2.83

###

Test: viability gain of MRP-1-high H69AR cells under doxorubicin, pilot screen, MRP-1 activator project, CellTiter-Glo, duplicate (AID 807);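 further: compound pretreatment 18-22 h then 72 h combined with doxorubicin; 0% = doxorubicin alone and 100% = vehicle without doxorubicin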
Conditions: H69AR viability with doxorubicin, CellTiter-Glo luminescence; at 10 µM; active compounds read high
compounds and their reported viability increase
All answers are understood in %, so give the number only.

Example results:
Consider Cc1cccc(OCCCCCNCCO)c1 . Its measured viability increase is -0.72

Consider COc1ccc(C(=O)NC(C)c2nc3ccccc3[nH]2)cc1OC (centres undefined) . Its measured viability increase is -1.84

Consider Cc1ccccc1NC(=O)c1ccc(S(=O)(=O)N(C)C)cc1 . Its measured viability increase is 0.67

Consider O=S(=O)(Cc1ccccc1)N1CCc2ccccc2C1 . Its measured viability increase is -0.66

Consider CCc1n[nH]c2c1/C(=N\O)CC(C)(C)C2 . Its measured viability increase is -2.26

Continuing:
Consider COc1ccc(NC(=O)C2CCC(C)(C(=O)O)C2(C)C)cc1 (centres undefined) . Its measured viability increase is -0.59

Consider Cc1nnc(NC(=O)CSc2nccn2-c2cccc(C)c2C)s1 . Its measured viability increase is -5.19

Consider CC(C)n1c(CCCO)nc2ccccc21 . Its measured viability increase is -1.64

Consider COc1ccc(Nc2oc(COc3ccccc3F)nc2C#N)cc1 . Its measured viability increase is -7.35

Consider CCC(C)[C@@H](C(=O)Nc1ccc(OC)c(OC)c1)N1Cc2ccccc2C1=O (some centres undefined) . Its measured viability increase is -2.11

Consider Cc1c(C(=O)NCc2ccco2)sc2nc(-c3ccccc3)cn12 . Its measured viability increase is -4.77

Consider O=C(Cn1c(=O)sc2ccccc21)Nc1ccccc1C(=O)O . Its measured viability increase is 1.36

Consider COc1ccc(Nc2nnc(Cc3ccccc3)c(=O)[nH]2)c(OC)c1 . Its measured viability increase is 0.58

Consider COC(=O)c1ccc(NC(=O)c2cnc3scc(C)n3c2=O)cc1 . Its measured viability increase is 1.67

Consider COc1cc(Cl)c(C)cc1NC(=O)CSc1nnc(-c2cccnc2)n1Cc1ccco1 . Its measured viability increase is -3.48

Consider N#Cc1c(N)nc2c(c1-c1ccc3c(c1)OCO3)CCCCCC2 . Its measured viability increase is -5.55

Consider O=C1N=C(c2ccccc2)C(c2ccccc2)N1 (centres undefined) . Its measured viability increase is -3.35

Consider Nc1c(C(=O)NCc2cccnc2)sc(=S)n1-c1ccccc1 . Its measured viability increase is -1.61

Consider CC1CC(C)CN(CCCNC(=O)Cn2ncc3c(=O)oc4ccccc4c32)C1 (centres undefined) . Its measured viability increase is -1.86

Consider Cc1ccccc1-c1ccc(Nc2ccc(N3CCOCC3)cc2)nn1 . Its measured viability increase is -5.91

Consider O=C(OC1CCCCC1)c1ccc(NC(=O)c2ccco2)cc1 . Its measured viability increase is -2.73

Consider c1csc(CNc2ncnc3sccc23)c1 . Its measured viability increase is -2

Consider CC(C)c1ccc(-c2nc(N3CCCC3)nc3n[nH]c(N)c23)cc1 . Its measured viability increase is -5.36

Consider O=S(=O)(NCCc1csc(-c2cccnc2)n1)c1cccs1 . Its measured viability increase is -1.11
